- TEST METHOD NOTES: Liver microsomes stability, human
- Format: in vitro ADME
- CONDITION SET: human liver microsomes

>  <COMPOUND>
O=C(O)Cc1ccccc1Nc1c(Cl)cccc1Cl [Diclofenac]

>  <UNIT>
mL/min/kg

>  <LT GT EQ>
=

>  <Predicted hepatic CL>
18.38

$$$$
>  <COMPOUND>
[2H]C([2H])(c1c[nH]c2ccc(OCCCCN3C(=O)c4ccccc4C3=O)cc12)[C@H]1CCCN1C([2H])([2H])[2H] [(R) I-244]

>  <UNIT>
mL/min/kg

>  <LT GT EQ>
=

>  <Predicted hepatic CL>
19.32

$$$$
>  <COMPOUND>
[2H]C([2H])(c1c[nH]c2ccc(OCCCCCN3C(=O)C4CCCCC4C3=O)cc12)[C@H]1CCCN1C([2H])([2H])[2H] (mixture of isomers) [Rac (R) I-248]

>  <UNIT>
mL/min/kg

>  <LT GT EQ>
>

>  <Predicted hepatic CL>
19.64

$$$$
>  <COMPOUND>
[2H]C([2H])(c1c[nH]c2ccc(OCCCCCN3C(=O)c4ccccc4C3=O)cc12)[C@H]1CCCN1C([2H])([2H])[2H] [(R) I-245]

>  <UNIT>
mL/min/kg

>  <LT GT EQ>
=

>  <Predicted hepatic CL>
18.11

$$$$
>  <COMPOUND>
COCCN1CCC[C@@H]1Cc1c[nH]c2ccc(OC)cc12 [(R) I-98]

>  <UNIT>
mL/min/kg

>  <LT GT EQ>
=

>  <Predicted hepatic CL>
11.72

$$$$

---

- TEST METHOD NOTES: Liver microsomes stability, mouse
- Type: in vitro ADME
- CONDITION SET: male, pooled liver microsomes; mouse liver microsomes, 2 μM compound, 0.5 mg/mL microsomes

>  <COMPOUND>
[2H]C([2H])(c1c[nH]c2ccc(OCCCCCN3C(=O)c4ccccc4C3=O)cc12)[C@H]1CCCN1C([2H])([2H])[2H] [(R) I-245]

>  <UNIT>
min

>  <LT GT EQ>
=

>  <half-life at 2 μM>
5.12

$$$$
>  <COMPOUND>
[2H]C([2H])(c1c[nH]c2ccc(OCCCCCN3C(=O)C4CCCCC4C3=O)cc12)[C@H]1CCCN1C([2H])([2H])[2H] (mixture of isomers) [Rac (R) I-248]

>  <UNIT>
min

>  <LT GT EQ>
<

>  <half-life at 2 μM>
4.51

$$$$
>  <COMPOUND>
[2H]C([2H])(c1c[nH]c2ccc(OCCCCN3C(=O)c4ccccc4C3=O)cc12)[C@H]1CCCN1C([2H])([2H])[2H] [(R) I-244]

>  <UNIT>
min

>  <LT GT EQ>
<

>  <half-life at 2 μM>
4.51

$$$$
>  <COMPOUND>
COCCN1CCC[C@@H]1Cc1c[nH]c2ccc(OC)cc12 [(R) I-98]

>  <UNIT>
min

>  <LT GT EQ>
=

>  <half-life at 2 μM>
14.4

$$$$

---

- TEST METHOD NOTES: Pharmacokinetic studies in rat (i.v.)
- Assay type: in vivo
- CONDITION SET: male, Sprague-Dawley, plasma, intravenous, dose per Dose column (1.32-2.09 mg/kg), 1 h, first animal (R07/R04/R01/R10), read-out: Plasma concentration
- Description: Animals: Male Sprague-Dawley rats (˜225-350 g) from Charles River Labs were acclimatized for a minimum of 5 days prior to start of study procedures. Body weights were recorded on the day of dosing. Any abnormalities were documented including presence/absence of wet dog shakes/back muscle contractions (WDS/BMC). Dosing: Formulations were administered intravenously (i.v.) via the tail vein using a 25 G needle connected to a 1 cc syringe. […]

>  <COMPOUND>
COCCN1CCC[C@@H]1Cc1c[nH]c2ccc(OC)cc12 [(R) I-98]

>  <concentration at 1 h>
128 ng/mL

$$$$
>  <COMPOUND>
[2H]C([2H])(c1c[nH]c2ccc(OCCCCN3C(=O)c4ccccc4C3=O)cc12)[C@H]1CCCN1C([2H])([2H])[2H] [(R) I-244]

>  <concentration at 1 h>
132 ng/mL

$$$$
>  <COMPOUND>
[2H]C([2H])(c1c[nH]c2ccc(OCCCCCN3C(=O)c4ccccc4C3=O)cc12)[C@H]1CCCN1C([2H])([2H])[2H] [(R) I-245]

>  <concentration at 1 h>
170 ng/mL

$$$$
>  <COMPOUND>
[2H]C([2H])(c1c[nH]c2ccc(OCCCCCN3C(=O)C4CCCCC4C3=O)cc12)[C@H]1CCCN1C([2H])([2H])[2H] (mixture of isomers) [Rac (R) I-248]

>  <concentration at 1 h>
134 ng/mL

$$$$

---

- TEST METHOD NOTES: Pharmacokinetic studies in rat (i.v.)
- Assay type: in vivo
- CONDITION SET: male, Sprague-Dawley, plasma, iv, 1.19 mg/kg, rat plasma, i.v., dose 1.19 mg/kg, 0.25 h, rat R03, read-out: Plasma concentration, R03
METRIC: concentration at 0.25 h (ng/mL)

>  <COMPOUND>
CSc1ccc2[nH]cc(C[C@H]3CCCN3C)c2c1 [(R) I-1]

>  <READOUT NUMBER>
94.7

$$$$

---

- TEST METHOD NOTES: Pharmacokinetic studies in rat (i.v.)
- Type: in vivo
- CONDITION SET: male, Sprague-Dawley, plasma, intravenous, dose per Dose column (1.32-2.09 mg/kg), 1 h, second animal (R08/R05/R02/R11), read-out: Plasma concentration

>  <MOLECULE>
[2H]C([2H])(c1c[nH]c2ccc(OCCCCCN3C(=O)C4CCCCC4C3=O)cc12)[C@H]1CCCN1C([2H])([2H])[2H] (mixture of isomers) [Rac (R) I-248]

>  <concentration at 1 h (ng/mL)>
135

$$$$
>  <MOLECULE>
COCCN1CCC[C@@H]1Cc1c[nH]c2ccc(OC)cc12 [(R) I-98]

>  <concentration at 1 h (ng/mL)>
110

$$$$
>  <MOLECULE>
[2H]C([2H])(c1c[nH]c2ccc(OCCCCCN3C(=O)c4ccccc4C3=O)cc12)[C@H]1CCCN1C([2H])([2H])[2H] [(R) I-245]

>  <concentration at 1 h (ng/mL)>
121

$$$$
>  <MOLECULE>
[2H]C([2H])(c1c[nH]c2ccc(OCCCCN3C(=O)c4ccccc4C3=O)cc12)[C@H]1CCCN1C([2H])([2H])[2H] [(R) I-244]

>  <concentration at 1 h (ng/mL)>
150

$$$$

---

- TEST METHOD NOTES: Pharmacokinetic studies in rat (i.v.)
- Format: in vivo
- CONDITION SET: male, Sprague-Dawley, plasma, intravenous, dose per Dose column (1.32-2.09 mg/kg), 0.25 h, third animal (R09/R06/R03/R12), read-out: Plasma concentration
METRIC: concentration at 0.25 h (µg/mL)

>  <COMPOUND>
[2H]C([2H])(c1c[nH]c2ccc(OCCCCCN3C(=O)c4ccccc4C3=O)cc12)[C@H]1CCCN1C([2H])([2H])[2H] [(R) I-245]

>  <METRIC>
concentration at 0.25 h

>  <READOUT NUMBER>
0.0718

$$$$
>  <COMPOUND>
[2H]C([2H])(c1c[nH]c2ccc(OCCCCN3C(=O)c4ccccc4C3=O)cc12)[C@H]1CCCN1C([2H])([2H])[2H] [(R) I-244]

>  <METRIC>
concentration at 0.25 h

>  <READOUT NUMBER>
0.263

$$$$
>  <COMPOUND>
COCCN1CCC[C@@H]1Cc1c[nH]c2ccc(OC)cc12 [(R) I-98]

>  <METRIC>
concentration at 0.25 h

>  <READOUT NUMBER>
0.449

$$$$
>  <COMPOUND>
[2H]C([2H])(c1c[nH]c2ccc(OCCCCCN3C(=O)C4CCCCC4C3=O)cc12)[C@H]1CCCN1C([2H])([2H])[2H] (mixture of isomers) [Rac (R) I-248]

>  <METRIC>
concentration at 0.25 h

>  <READOUT NUMBER>
0.459

$$$$

---

Each entry below carries its recorded EC50.
- SYSTEM UNDER TEST: human 5-HT2A receptor (Homo sapiens)
- Construct: expressed in transfected cells; host or cells: U2OS
- Sequence (P28223 whole entry): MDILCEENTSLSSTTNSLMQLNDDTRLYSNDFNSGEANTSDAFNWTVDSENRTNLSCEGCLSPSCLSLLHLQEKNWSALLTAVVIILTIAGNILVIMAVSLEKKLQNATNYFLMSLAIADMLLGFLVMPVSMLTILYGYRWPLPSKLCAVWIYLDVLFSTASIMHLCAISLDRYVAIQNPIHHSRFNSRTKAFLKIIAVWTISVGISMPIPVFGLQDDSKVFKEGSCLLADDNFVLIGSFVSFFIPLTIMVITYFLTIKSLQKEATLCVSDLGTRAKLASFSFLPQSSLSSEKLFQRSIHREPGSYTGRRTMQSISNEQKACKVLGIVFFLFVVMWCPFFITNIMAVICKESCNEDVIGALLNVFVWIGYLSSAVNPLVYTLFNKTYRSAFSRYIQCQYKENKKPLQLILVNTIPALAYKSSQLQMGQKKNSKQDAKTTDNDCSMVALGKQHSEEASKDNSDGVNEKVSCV
- TEST METHOD NOTES: Human 5-HT2A β-arrestin reporter assay
- Format: cell-based
- CONDITION SET: β-arrestin reporter, stably transfected U2OS cells, 120 min; read-out: EC50
METRIC: EC50 (nM)

>  <COMPOUND>
[2H]C([2H])(c1c[nH]c2ccc(OCCCCCN3C(=O)c4ccccc4C3=O)cc12)[C@H]1CCCN1C([2H])([2H])[2H] [(R) I-245]

>  <METRIC>
EC50

>  <UNIT>
nM

>  <READOUT NUMBER>
28.4

$$$$
>  <COMPOUND>
[2H]C([2H])(c1c[nH]c2ccc(OCCCCCN3C(=O)[C@H]4CCCC[C@H]4C3=O)cc12)[C@H]1CCCN1C([2H])([2H])[2H] [Cis (R) I-248]

>  <METRIC>
EC50

>  <UNIT>
nM

>  <READOUT NUMBER>
112

$$$$
>  <COMPOUND>
[2H]C([2H])(c1c[nH]c2ccc(OCCCCN3C(=O)c4ccccc4C3=O)cc12)[C@H]1CCCN1C([2H])([2H])[2H] [(R) I-244]

>  <METRIC>
EC50

>  <UNIT>
nM

>  <READOUT NUMBER>
6.71

$$$$
>  <COMPOUND>
COCCN1CCC[C@@H]1Cc1c[nH]c2ccc(OC)cc12 [(R) I-98]

>  <METRIC>
EC50

>  <UNIT>
nM

>  <READOUT NUMBER>
25.8

$$$$
>  <COMPOUND>
CN(C)CCc1c[nH]c2ccccc12 [DMT]

>  <METRIC>
EC50

>  <UNIT>
nM

>  <READOUT NUMBER>
114

$$$$
